Assay: Equilibrium (intrinsic) solubility of the test article in formulation mixtures, 24h, LC/MS
Conditions: 20% transcutol in normal saline, aqueous with cosolvent or surfactant or cyclodextrin, thermodynamic from solid
measurement name: solubility at 24 h
Field note: include the unit after the figure.

Data request: Reported solubility at 24 h for C=C(NC(=O)C(=C)NC(=O)c1csc(C2=N[C@@H]3c4csc(n4)[C@H]4NC(=O)c5csc(n5)[C@H]([C@](C)(O)[C@@H](C)O)NC(=O)[C@H]5CSC(=N5)/C(=C/C)NC(=O)[C@H]([C@@H](C)O)NC(=O)c5csc(n5)[C@]3(CC2)NC(=O)[C@H](C)NC(=O)C(=C)NC(=O)[C@H](C)NC(=O)[C@H]([C@@H](C)CC)N[C@@H]2C=Cc3c([C@H](C)O)cc(nc3[C@H]2O)C(=O)O[C@@H]4C)n1)C(N)=O : what is it?
Data returned: 660 µM

----------
Assay: Equilibrium (intrinsic) solubility of the test article in formulation mixtures, 24h, LC/MS
Conditions: 20% Peceol in normal saline, aqueous with cosolvent or surfactant or cyclodextrin, thermodynamic from solid
measurement name: solubility at 24 h (µM)
Numbers only, in µM.

Data request: Given C=C(NC(=O)C(=C)NC(=O)c1csc(C2=N[C@@H]3c4csc(n4)[C@H]4NC(=O)c5csc(n5)[C@H]([C@](C)(O)[C@@H](C)O)NC(=O)[C@H]5CSC(=N5)/C(=C/C)NC(=O)[C@H]([C@@H](C)O)NC(=O)c5csc(n5)[C@]3(CC2)NC(=O)[C@H](C)NC(=O)C(=C)NC(=O)[C@H](C)NC(=O)[C@H]([C@@H](C)CC)N[C@@H]2C=Cc3c([C@H](C)O)cc(nc3[C@H]2O)C(=O)O[C@@H]4C)n1)C(N)=O [TS, Thiostrepton] , state its recorded solubility at 24 h.
Data returned: 300

----------
Assay: Equilibrium (intrinsic) solubility of the test article in formulation mixtures, 24h, LC/MS
Conditions: 20% Captisol in normal saline, aqueous with cosolvent or surfactant or cyclodextrin, thermodynamic from solid
measurement name: solubility at 24 h (µM)
Answers are plain numbers, in µM.

Data request: Which solubility at 24 h reading was recorded for the compound C=C(NC(=O)C(=C)NC(=O)c1csc(C2=N[C@@H]3c4csc(n4)[C@H]4NC(=O)c5csc(n5)[C@H]([C@](C)(O)[C@@H](C)O)NC(=O)[C@H]5CSC(=N5)/C(=C/C)NC(=O)[C@H]([C@@H](C)O)NC(=O)c5csc(n5)[C@]3(CC2)NC(=O)[C@H](C)NC(=O)C(=C)NC(=O)[C@H](C)NC(=O)[C@H]([C@@H](C)CC)N[C@@H]2C=Cc3c([C@H](C)O)cc(nc3[C@H]2O)C(=O)O[C@@H]4C)n1)C(N)=O [TS, Thiostrepton] ?
Data returned: 380

----------
Test: Equilibrium (intrinsic) solubility of the test article in formulation mixtures, 24h, LC/MS
Conditions: 30% polyethylene glycol 300 in normal saline, aqueous with cosolvent or surfactant or cyclodextrin, thermodynamic from solid
measurement name: solubility at 24 h (µM)
One number for each entry, in µM.

Data request: Query: solubility at 24 h; subject: C=C(NC(=O)C(=C)NC(=O)c1csc(C2=N[C@@H]3c4csc(n4)[C@H]4NC(=O)c5csc(n5)[C@H]([C@](C)(O)[C@@H](C)O)NC(=O)[C@H]5CSC(=N5)/C(=C/C)NC(=O)[C@H]([C@@H](C)O)NC(=O)c5csc(n5)[C@]3(CC2)NC(=O)[C@H](C)NC(=O)C(=C)NC(=O)[C@H](C)NC(=O)[C@H]([C@@H](C)CC)N[C@@H]2C=Cc3c([C@H](C)O)cc(nc3[C@H]2O)C(=O)O[C@@H]4C)n1)C(N)=O
Data returned: 320

----------
Assay: Equilibrium (intrinsic) solubility of the test article in formulation mixtures, 24h, LC/MS
Conditions: 1% polyvinylalcohol (61,000 amw) in normal saline, aqueous with cosolvent or surfactant or cyclodextrin, thermodynamic from solid
measurement name: solubility at 24 h (µM)
Give bare numbers, in µM.

Data request: // lookup solubility at 24 h for C=C(NC(=O)C(=C)NC(=O)c1csc(C2=N[C@@H]3c4csc(n4)[C@H]4NC(=O)c5csc(n5)[C@H]([C@](C)(O)[C@@H](C)O)NC(=O)[C@H]5CSC(=N5)/C(=C/C)NC(=O)[C@H]([C@@H](C)O)NC(=O)c5csc(n5)[C@]3(CC2)NC(=O)[C@H](C)NC(=O)C(=C)NC(=O)[C@H](C)NC(=O)[C@H]([C@@H](C)CC)N[C@@H]2C=Cc3c([C@H](C)O)cc(nc3[C@H]2O)C(=O)O[C@@H]4C)n1)C(N)=O
Data returned: 200

----------
Assay: Equilibrium (intrinsic) solubility of the test article in formulation mixtures, 24h, LC/MS
Details: 20% hydroxypropyl-beta-cyclodextrin in normal saline, aqueous with cosolvent or surfactant or cyclodextrin, thermodynamic from solid
measurement name: solubility at 24 h

Data request: # input compound: C=C(NC(=O)C(=C)NC(=O)c1csc(C2=N[C@@H]3c4csc(n4)[C@H]4NC(=O)c5csc(n5)[C@H]([C@](C)(O)[C@@H](C)O)NC(=O)[C@H]5CSC(=N5)/C(=C/C)NC(=O)[C@H]([C@@H](C)O)NC(=O)c5csc(n5)[C@]3(CC2)NC(=O)[C@H](C)NC(=O)C(=C)NC(=O)[C@H](C)NC(=O)[C@H]([C@@H](C)CC)N[C@@H]2C=Cc3c([C@H](C)O)cc(nc3[C@H]2O)C(=O)O[C@@H]4C)n1)C(N)=O [TS, Thiostrepton] ; wanted: its solubility at 24 h
Data returned: 440 µM

----------
Experiment: Equilibrium (intrinsic) solubility of the test article in formulation mixtures, 24h, LC/MS
Conditions: 1% polyacrylic acid (450,000 amw) in normal saline, aqueous with cosolvent or surfactant or cyclodextrin, thermodynamic from solid
measurement name: solubility at 24 h (µM)
Give bare numbers, in µM.

Data request: Recorded solubility at 24 h for C=C(NC(=O)C(=C)NC(=O)c1csc(C2=N[C@@H]3c4csc(n4)[C@H]4NC(=O)c5csc(n5)[C@H]([C@](C)(O)[C@@H](C)O)NC(=O)[C@H]5CSC(=N5)/C(=C/C)NC(=O)[C@H]([C@@H](C)O)NC(=O)c5csc(n5)[C@]3(CC2)NC(=O)[C@H](C)NC(=O)C(=C)NC(=O)[C@H](C)NC(=O)[C@H]([C@@H](C)CC)N[C@@H]2C=Cc3c([C@H](C)O)cc(nc3[C@H]2O)C(=O)O[C@@H]4C)n1)C(N)=O , please?
Data returned: 130
